Where do these numbers come from? They come from patent US20120028976A1.

methodDescription: Rising single dose (RSD) study: pharmacokinetics of orally administered COMPOUND 1 in healthy subjects
Format: in vivo, human
assaySetup: male, human, plasma, po, 5 mg, single oral dose 5 mg, n=6; value (range); read-out: Tmax
Description: Phase I clinical studies were designed to evaluate the pharmacokinetics of COMPOUND 1 in healthy subjects after rising single and multiple doses. […] In the single-dose study, 50 healthy males were enrolled into 6 sequential cohorts and randomized to receive in ascending dose manner placebo (n=2-3/group) or oral COMPOUND 1 (0.25, 1, 5, 10, 20 and 40 mg; n=5-6/group). […] Measured and derived pharmacokinetic parameters were used to assess the pharmacokinetic profile. […]
measuredParameter: Tmax (min)
Report only the number, with the unit min understood.

Per the record, CCOC(=O)N[C@@H]1CC[C@@H]2[C@@H](C1)C[C@H]1C(=O)O[C@H](C)[C@H]1[C@H]2/C=C/c1ccc(-c2cccc(F)c2)cn1 has Tmax of 45
